- Target Or Test System: human ROCKα/ROCKII mix (Homo sapiens, UniProt O75116)
- Construct: purchased Upstate Biotechnology 14-451
- Sequence (O75116 11-552 limits assumed): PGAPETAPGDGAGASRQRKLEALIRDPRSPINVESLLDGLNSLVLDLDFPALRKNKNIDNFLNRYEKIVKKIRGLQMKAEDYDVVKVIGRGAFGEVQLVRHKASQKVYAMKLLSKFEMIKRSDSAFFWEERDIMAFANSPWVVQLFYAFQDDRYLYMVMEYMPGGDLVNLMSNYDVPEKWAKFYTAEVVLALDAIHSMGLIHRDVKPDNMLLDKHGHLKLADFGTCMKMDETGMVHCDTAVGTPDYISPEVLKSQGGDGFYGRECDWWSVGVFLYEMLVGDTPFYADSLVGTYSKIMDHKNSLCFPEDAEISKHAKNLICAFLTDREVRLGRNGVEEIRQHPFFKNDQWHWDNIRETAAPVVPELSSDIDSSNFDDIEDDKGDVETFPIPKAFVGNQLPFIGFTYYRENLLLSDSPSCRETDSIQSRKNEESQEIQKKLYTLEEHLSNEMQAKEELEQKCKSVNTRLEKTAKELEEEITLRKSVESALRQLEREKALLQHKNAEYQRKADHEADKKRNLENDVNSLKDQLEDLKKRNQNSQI
- Assay Overview: Biochemical assay for ROCK (fluorescence polarization, ROCK IMAP Kit)
- Particulars: Table 2, compounds of Formula XIII
Recorded Endpoint: IC50

Known results for molecules:
>  <Molecule>
CC(C)CC(=O)NCC(N)c1ccc(C(=O)Nc2ccncc2)cc1 (stereo not shown)

>  <Test Value>
0.5 to 5 µM

$$$$
>  <Molecule>
NC(CNC(=O)C1(c2cccs2)CC1)c1ccc(C(=O)Nc2ccncc2)cc1 (stereo not shown)

>  <Test Value>
0.05 to 0.5 µM

$$$$
>  <Molecule>
Cc1ccc(CC(=O)NCC(N)c2ccc(C(=O)Nc3ccncc3)cc2)cc1 (stereo not shown)

>  <Test Value>
0.05 to 0.5 µM

$$$$
>  <Molecule>
NC(CNC(=O)C1(c2ccc(Cl)c(Cl)c2)CC1)c1ccc(C(=O)Nc2ccncc2)cc1 (stereo not shown)

>  <Test Value>
0.05 to 0.5 µM

$$$$
>  <Molecule>
CC(=O)Nc1ccc(C(=O)NCC(N)c2ccc(C(=O)Nc3ccncc3)cc2)cc1 (stereo not shown)

>  <Test Value>
0.5 to 5 µM

$$$$
>  <Molecule>
NC(CNC(=O)c1ccoc1)c1ccc(C(=O)Nc2ccncc2)cc1 (stereo not shown)

>  <Test Value>
0.05 to 0.5 µM

$$$$
>  <Molecule>
NC(CNC(=O)c1cccc2ccccc12)c1ccc(C(=O)Nc2ccncc2)cc1 (stereo not shown)

>  <Test Value>
0.5 to 5 µM

$$$$
>  <Molecule>
Cc1cccc(C(=O)NCC(N)c2ccc(C(=O)Nc3ccncc3)cc2)c1 (stereo not shown)

>  <Test Value>
0.5 to 5 µM

$$$$
>  <Molecule>
NC(CNC(=O)C1CCCO1)c1ccc(C(=O)Nc2ccncc2)cc1 (stereo not shown)

>  <Test Value>
0.5 to 5 µM

$$$$
>  <Molecule>
NC(CNC(=O)CCc1ccc(F)cc1)c1ccc(C(=O)Nc2ccncc2)cc1 (stereo not shown)

>  <Test Value>
0.05 to 0.5 µM

$$$$

Query: Determine from records and report IC50 for NC(CNC(=O)c1ccc(-c2ccccc2)cc1)c1ccc(C(=O)Nc2ccncc2)cc1 (stereo not shown)
Result: 0.5 to 5 µM

* * *

- Target Or Test System: PKC epsilon (Homo sapiens)
- Construct: purchased Invitrogen P2282
- Sequence (Q02156 whole entry): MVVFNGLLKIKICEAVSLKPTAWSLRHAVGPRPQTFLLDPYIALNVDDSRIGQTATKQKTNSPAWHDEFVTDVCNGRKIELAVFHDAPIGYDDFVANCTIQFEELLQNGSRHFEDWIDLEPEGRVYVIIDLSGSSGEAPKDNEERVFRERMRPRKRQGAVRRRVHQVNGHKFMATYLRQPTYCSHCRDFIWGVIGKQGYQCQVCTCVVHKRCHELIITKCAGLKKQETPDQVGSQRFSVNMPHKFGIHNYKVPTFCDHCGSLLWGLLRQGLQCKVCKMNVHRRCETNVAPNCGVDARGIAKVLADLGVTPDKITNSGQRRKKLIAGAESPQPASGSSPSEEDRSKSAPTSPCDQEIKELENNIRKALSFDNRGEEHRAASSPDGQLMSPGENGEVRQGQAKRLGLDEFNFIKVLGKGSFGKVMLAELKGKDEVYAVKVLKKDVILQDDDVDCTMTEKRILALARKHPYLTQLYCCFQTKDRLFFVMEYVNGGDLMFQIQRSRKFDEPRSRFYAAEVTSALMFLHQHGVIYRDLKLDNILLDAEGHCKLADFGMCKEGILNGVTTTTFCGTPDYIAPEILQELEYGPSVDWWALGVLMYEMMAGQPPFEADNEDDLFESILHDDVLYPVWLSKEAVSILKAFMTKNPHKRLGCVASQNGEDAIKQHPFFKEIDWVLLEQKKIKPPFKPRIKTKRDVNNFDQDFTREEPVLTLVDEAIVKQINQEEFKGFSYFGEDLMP
- Assay Overview: Biochemical assay for PKC epsilon (fluorescence polarization, Protein Kinase C Assay Kit, Red)
- Particulars: Table 2, compounds of Formula XIII; read-out: IC50 μM PKCε
Recorded Endpoint: IC50

>  <Compound>
CC(C)(C(=O)NCC(N)c1ccc(C(=O)Nc2ccncc2)cc1)c1ccc(F)cc1F (stereo not shown)

>  <IC50>
< 0.05 µM

$$$$
>  <Compound>
COc1ccc(CC(=O)NCC(N)c2ccc(C(=O)Nc3ccncc3)cc2)cc1 (stereo not shown)

>  <IC50>
5 to 50 µM

$$$$
>  <Compound>
NC(CNC(=O)c1ccsc1)c1ccc(C(=O)Nc2ccncc2)cc1 (stereo not shown)

>  <IC50>
0.5 to 5 µM

$$$$
>  <Compound>
CNS(=O)(=O)c1ccc(C(=O)NCC(N)c2ccc(C(=O)Nc3ccncc3)cc2)cc1 (stereo not shown)

>  <IC50>
5 to 50 µM

$$$$
>  <Compound>
NC(CNC(=O)c1ccc(C(=O)c2ccccc2)cc1)c1ccc(C(=O)Nc2ccncc2)cc1 (stereo not shown)

>  <IC50>
5 to 50 µM

$$$$
>  <Compound>
NC(CNC(=O)[C@@H]1CCC(=O)N1)c1ccc(C(=O)Nc2ccncc2)cc1 (stereo partly shown)

>  <IC50>
5 to 50 µM

$$$$
>  <Compound>
Cc1cccc(C(=O)NCC(N)c2ccc(C(=O)Nc3ccncc3)cc2)c1 (stereo not shown)

>  <IC50>
0.5 to 5 µM

$$$$
>  <Compound>
NC(CNC(=O)C1CCOC1)c1ccc(C(=O)Nc2ccncc2)cc1 (stereo not shown)

>  <IC50>
0.5 to 5 µM

$$$$

Query: Using known records, supply IC50 for NC(CNC(=O)c1cccc(S(=O)(=O)Nc2ccccc2)c1)c1ccc(C(=O)Nc2ccncc2)cc1 (stereo not shown)
Result: 0.5 to 5 µM

Query: Return IC50 for the following compound: NC(CNC(=O)CCC1CCCC1)c1ccc(C(=O)Nc2ccncc2)cc1 (stereo not shown)
Result: 0.5 to 5 µM

Query: Please give the documented IC50 of NC(CNC(=O)c1cccnc1)c1ccc(C(=O)Nc2ccncc2)cc1 (stereo not shown)
Result: 0.5 to 5 µM

* * *

- Target Or Test System: human ROCKα/ROCKII mix (Homo sapiens, UniProt O75116)
- Construct: purchased Upstate Biotechnology 14-451
- Assay Overview: Biochemical assay for ROCK (fluorescence polarization, ROCK IMAP Kit)
Recorded Endpoint: IC50

Recorded results for 5 compounds are shown here.
>  <Compound>
COc1ccc(CC(=O)N2CCCC2C(N)c2ccc(C(=O)Nc3ccncc3)cc2)cc1F (centres unmarked)

>  <IC50>
0.5 to 5 µM

$$$$
>  <Compound>
N[C@H](CC(=O)NCc1ccc(F)cc1)c1ccc(C(=O)Nc2ccncc2)cc1

>  <IC50>
0.05 to 0.5 µM

$$$$
>  <Compound>
N[C@H](CC(=O)N[C@@H]1CCCc2ccccc21)c1ccc(C(=O)Nc2ccncc2)cc1

>  <IC50>
< 0.05 µM

$$$$
>  <Compound>
N[C@@H](CNC(=O)C1(c2ccc(F)cc2)CCCC1)c1ccc(C(=O)Nc2ccncc2)cc1

>  <IC50>
0.5 to 5 µM

$$$$
>  <Compound>
NC(c1ccc(C(=O)Nc2ccncc2)cc1)C1CCCN1C(=O)C1CCSc2ccc(F)cc21 (centres unmarked)

>  <IC50>
0.5 to 5 µM

$$$$

Query: Look up and report measured IC50 for this entry: NC(c1ccc(C(=O)Nc2ccncc2)cc1)C1CCCN1C(=O)Cc1ccc(F)cc1 (centres unmarked)
Result: 0.5 to 5 µM

Query: Fill in reported IC50 for this entry: `N[C@H](CC(=O)N[C@H]1COc2ccccc21)c1ccc(C(=O)Nc2ccncc2)cc1`
Result: 0.05 to 0.5 µM

Query: Indicate its recorded IC50; the compound in question is NC(c1ccc(C(=O)Nc2ccncc2)cc1)C1CCCN1C(=O)Cc1ccc(F)cc1Cl (centres unmarked)
Result: 0.5 to 5 µM

* * *

- Target Or Test System: PKC epsilon (Homo sapiens)
- Construct: purchased Invitrogen P2282
- Assay Overview: Biochemical assay for PKC epsilon (fluorescence polarization, Protein Kinase C Assay Kit, Red)
- Particulars: read-out: IC50 μM PKCε
Recorded Endpoint: IC50

>  <Compound>
COc1cccc(CC(=O)N(C)CC(N)c2ccc(C(=O)Nc3ccncc3)cc2)c1 (centres unmarked)

>  <Test Value>
5 to 50 µM

$$$$
>  <Compound>
CC(C)(C)NC(=O)NCC(N)c1ccc(C(=O)Nc2ccncc2)cc1 (centres unmarked)

>  <Test Value>
0.5 to 5 µM

$$$$
>  <Compound>
CN(CC(N)c1ccc(C(=O)Nc2ccncc2)cc1)C(=O)C1(c2ccc(Cl)cc2Cl)CC1 (centres unmarked)

>  <Test Value>
5 to 50 µM

$$$$

Query: Give the reported value of IC50 for this record: CN(CC(N)c1ccc(C(=O)Nc2ccncc2)cc1)C(=O)C1CCOc2ccc(F)cc21 (centres unmarked)
Result: 5 to 50 µM

Query: State its IC50: CN(CC(N)c1ccc(C(=O)Nc2ccncc2)cc1)C(=O)C1(c2ccc(F)cc2)CCCC1 (centres unmarked)
Result: 0.5 to 5 µM

Query: Quick one: give measured IC50 for Cc1ccc(CC(=O)N2CCCC2C(N)c2ccc(C(=O)Nc3ccncc3)cc2)cc1 (centres unmarked)
Result: 0.5 to 5 µM

Query: Report IC50, nothing else, for this compound: NC(CNC(=S)Nc1ccc(OC(F)(F)F)cc1)c1ccc(C(=O)Nc2ccncc2)cc1 (centres unmarked)
Result: 5 to 50 µM

Query: In one line, give reported IC50 of the entry COc1ccc(NC(=O)NCC(N)c2ccc(C(=O)Nc3ccncc3)cc2)cc1 (centres unmarked) .
Result: 0.5 to 5 µM

* * *

- Target Or Test System: PKC epsilon (Homo sapiens)
- Construct: purchased Invitrogen P2282
- Assay Overview: Biochemical assay for PKC epsilon (fluorescence polarization, Protein Kinase C Assay Kit, Red)
- Particulars: compounds of Formula XIV, Table 3; read-out: IC50 μM PKCε
- Protocol: The compounds were tested for inhibition of PKC epsilon. The inhibition assays were performed with a fluorescence polarization (FP) assay using the commercially available Protein Kinase C Assay Kit, Red, from Invitrogen (Product ID. No. P2941), essentially in accordance with the protocol supplied by the manufacturer. […] The results were fitted to a curve using the XL-Fit algorithm and […] were calculated for each fitted curve, again using the XL-Fit algorithm.
The entries below are paired with their reported IC50.

>  <Compound>
NC(CC(=O)NCc1cccc(Cl)c1Cl)c1ccc(C(=O)Nc2ccncc2)cc1 (centres unmarked)

>  <IC50>
0.05 to 0.5 µM

$$$$
>  <Compound>
NC(CC(=O)NCc1ccccc1F)c1ccc(C(=O)Nc2ccncc2)cc1 (centres unmarked)

>  <IC50>
0.5 to 5 µM

$$$$
>  <Compound>
NC(CC(=O)NCc1cccc(Br)c1)c1ccc(C(=O)Nc2ccncc2)cc1 (centres unmarked)

>  <IC50>
0.5 to 5 µM

$$$$
>  <Compound>
CC(C)C(C)NC(=O)CC(N)c1ccc(C(=O)Nc2ccncc2)cc1 (centres unmarked)

>  <IC50>
0.5 to 5 µM

$$$$

// switching to the query compound
Query: Using the record for COC(=O)C(C)NC(=O)CC(N)c1ccc(C(=O)Nc2ccncc2)cc1 (centres unmarked) , state its measured IC50.
Result: 0.5 to 5 µM
